Experiment: Clearance in rat hepatocytes relative to hepatic blood flow
Assay type: ADME, cell-based, Liver, Hepatocyte
Conditions: read-out: CLH
Below, each of the compounds is paired with its reported hepatic extraction ratio value.
measurement type: hepatic extraction ratio

smiles str: NC(=O)c1ccc(Cl)c(-c2ccc3c(c2)C(F)(F)CCN3C(=O)c2c(F)cccc2Cl)c1
data value: 0.86

smiles str: NC(=O)c1ccc(Cl)c(-c2ccc3c(c2)OCCN3C(=O)c2c(F)cccc2Cl)c1
data value: 0.85

smiles str: CN(C(=O)c1c(F)cccc1Cl)c1ccc(-c2cc(C(N)=O)ccc2Cl)cc1OCC(F)(F)F
data value: 0.83

smiles str: [2H]C([2H])([2H])N(C(=O)c1c(F)cccc1Cl)c1ccc(-c2cc(C(N)=O)ccc2Cl)cc1OCC(F)(F)F
data value: 0.65
